Where do the numbers come from? From patent US8735426B2.

# Assayed target: vanilloid receptor 1 (VR1/TRPV1-Receptor) (Homo sapiens)
# Sequence (Q8NER1 whole entry): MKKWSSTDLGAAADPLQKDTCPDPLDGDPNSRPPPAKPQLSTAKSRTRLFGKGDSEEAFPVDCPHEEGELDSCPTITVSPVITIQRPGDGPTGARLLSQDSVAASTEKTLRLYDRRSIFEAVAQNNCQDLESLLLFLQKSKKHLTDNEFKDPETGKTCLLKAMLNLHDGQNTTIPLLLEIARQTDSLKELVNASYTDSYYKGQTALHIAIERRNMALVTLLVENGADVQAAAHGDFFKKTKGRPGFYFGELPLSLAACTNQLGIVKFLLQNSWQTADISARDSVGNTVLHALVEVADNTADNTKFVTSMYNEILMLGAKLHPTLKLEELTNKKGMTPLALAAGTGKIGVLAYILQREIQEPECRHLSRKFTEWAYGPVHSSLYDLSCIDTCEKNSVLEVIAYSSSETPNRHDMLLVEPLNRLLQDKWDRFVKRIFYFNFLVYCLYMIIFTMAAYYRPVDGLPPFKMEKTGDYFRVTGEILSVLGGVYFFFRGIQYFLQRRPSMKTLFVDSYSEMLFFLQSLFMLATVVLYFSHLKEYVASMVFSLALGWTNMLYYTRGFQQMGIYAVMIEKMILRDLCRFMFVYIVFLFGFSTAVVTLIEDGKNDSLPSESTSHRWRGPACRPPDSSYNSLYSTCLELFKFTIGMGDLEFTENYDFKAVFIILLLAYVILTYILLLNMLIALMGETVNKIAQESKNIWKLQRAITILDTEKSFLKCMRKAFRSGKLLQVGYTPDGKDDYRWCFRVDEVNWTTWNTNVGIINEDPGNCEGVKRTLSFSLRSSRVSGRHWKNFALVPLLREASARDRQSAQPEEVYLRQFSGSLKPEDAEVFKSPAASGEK
# Protocol details: VR1 functional assay following pH-stimulus
# Assay type: cell-based
# Conditions used: @ 5 μM, read-out: inhibition (in percent), Human following pH-stimulus
Measured metric: inhibition at 5 µM (%)

Recorded results for 2 compounds are shown here.
[
  {
    "Compound": "CC(C)(C(=O)NCc1ccc(C(F)(F)F)nc1SC1CCCCC1)c1ccc(NS(C)(=O)=O)c(F)c1",
    "Measurement unit": "%",
    "inhibition at 5 µM": 42
  },
  {
    "Compound": "CCC(C)(C(=O)NCc1ccc(C(F)(F)F)nc1SC1CCCCC1)c1ccc(NS(C)(=O)=O)c(F)c1 (stereo not drawn)",
    "Measurement unit": "%",
    "inhibition at 5 µM": 0
  }
]

a = CCC(C)(C(=O)NCc1ccc(C(F)(F)F)nc1N1CCC(C)CC1)c1ccc(NS(C)(=O)=O)c(F)c1 (stereo not drawn)
b = CS(=O)(=O)Nc1ccc(C2(C(=O)NCc3ccc(C(F)(F)F)nc3SC3CCCCC3)CCCC2)cc1F
c = CC1CCN(c2nc(C(F)(F)F)ccc2CNC(=O)C2(c3ccc(NS(C)(=O)=O)c(F)c3)CCCCC2)CC1
d = CS(=O)(=O)Nc1ccc(C(C(=O)NCc2ccc(C(F)(F)F)nc2SC2CCCCC2)C2CCCC2)cc1F (stereo not drawn)
Q) Returns the items ordered by inhibition at 5 µM, from maximum to minimum. # list labels per requested ordering
A) d, a, c, b
